These entries and their values trace back to patent US10428066B2.

target: purified recombinantly expressed human SSAO (Homo sapiens (Human), UniProt Q16853); experiment: SSAO enzyme inhibition assay (HRP-coupled hydrogen peroxide detection or 14C-benzaldehyde detection, benzylamine substrate); conditions: human recombinant SSAO, RT
Sequence (Q16853 29-763): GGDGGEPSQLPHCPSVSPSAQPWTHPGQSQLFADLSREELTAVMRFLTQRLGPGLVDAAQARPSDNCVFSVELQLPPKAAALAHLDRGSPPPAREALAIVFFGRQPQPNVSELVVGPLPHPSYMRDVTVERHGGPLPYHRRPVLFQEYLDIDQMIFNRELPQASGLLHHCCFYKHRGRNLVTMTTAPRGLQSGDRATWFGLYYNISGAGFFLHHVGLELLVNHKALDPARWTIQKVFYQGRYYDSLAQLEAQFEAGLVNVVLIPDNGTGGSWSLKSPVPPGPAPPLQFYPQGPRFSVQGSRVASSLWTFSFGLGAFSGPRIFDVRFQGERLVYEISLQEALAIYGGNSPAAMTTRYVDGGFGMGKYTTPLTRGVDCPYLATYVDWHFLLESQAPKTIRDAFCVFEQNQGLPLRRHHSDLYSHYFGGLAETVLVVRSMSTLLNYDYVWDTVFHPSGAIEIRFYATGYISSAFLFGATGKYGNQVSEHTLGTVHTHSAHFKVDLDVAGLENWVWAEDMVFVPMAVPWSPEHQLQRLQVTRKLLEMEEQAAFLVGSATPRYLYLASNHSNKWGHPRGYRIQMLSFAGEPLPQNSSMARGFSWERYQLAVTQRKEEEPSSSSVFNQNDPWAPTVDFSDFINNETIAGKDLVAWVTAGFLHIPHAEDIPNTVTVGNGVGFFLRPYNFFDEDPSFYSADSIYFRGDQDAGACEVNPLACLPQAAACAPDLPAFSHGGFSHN
pIC50: −log10 of the molar value.
outcome_measure: pIC50

In the examples that follow, each entry is paired with its recorded pIC50.
smiles_code: Fc1ccc(-n2c(-c3cnc(NC4CCOCC4)nc3)nc3ccncc32)cc1
pIC50: 6.70 to 7.30
--
smiles_code: Cc1cc(NC2CCOCC2)ncc1-c1nc2ccncc2n1-c1ccc(F)cc1
pIC50: 5.92 to 6.70

Tested on purified recombinantly expressed human SSAO (Homo sapiens (Human), UniProt Q16853), the item c1ccc(-n2c(-c3cnc(N4CCOCC4)nc3)nc3ccncc32)cc1 showed pIC50 equal to 6.70 to 7.30

Tested on purified recombinantly expressed human SSAO (Homo sapiens (Human), UniProt Q16853), the item c1ccc(-n2c(-c3cnc(N4CCOCC4)nc3)cc3ccncc32)cc1 showed pIC50 equal to 5.92 to 6.70

Tested on purified recombinantly expressed human SSAO (Homo sapiens (Human), UniProt Q16853), the item CN(C)c1ccc(-c2nc3ccncc3n2-c2ccc(F)cc2)cn1 showed pIC50 equal to 5.92 to 6.70

----------
biological target: human ether a go-go related gene (hERG) K+ channel (Homo sapiens (Human)); experiment: hERG assay, IonWorks patch clamp electrophysiology; format: cell-based; details: Chinese Hamster Lung cell line stably expressing hERG, maximum assay concentration 11 uM
Sequence (Q12809 whole entry): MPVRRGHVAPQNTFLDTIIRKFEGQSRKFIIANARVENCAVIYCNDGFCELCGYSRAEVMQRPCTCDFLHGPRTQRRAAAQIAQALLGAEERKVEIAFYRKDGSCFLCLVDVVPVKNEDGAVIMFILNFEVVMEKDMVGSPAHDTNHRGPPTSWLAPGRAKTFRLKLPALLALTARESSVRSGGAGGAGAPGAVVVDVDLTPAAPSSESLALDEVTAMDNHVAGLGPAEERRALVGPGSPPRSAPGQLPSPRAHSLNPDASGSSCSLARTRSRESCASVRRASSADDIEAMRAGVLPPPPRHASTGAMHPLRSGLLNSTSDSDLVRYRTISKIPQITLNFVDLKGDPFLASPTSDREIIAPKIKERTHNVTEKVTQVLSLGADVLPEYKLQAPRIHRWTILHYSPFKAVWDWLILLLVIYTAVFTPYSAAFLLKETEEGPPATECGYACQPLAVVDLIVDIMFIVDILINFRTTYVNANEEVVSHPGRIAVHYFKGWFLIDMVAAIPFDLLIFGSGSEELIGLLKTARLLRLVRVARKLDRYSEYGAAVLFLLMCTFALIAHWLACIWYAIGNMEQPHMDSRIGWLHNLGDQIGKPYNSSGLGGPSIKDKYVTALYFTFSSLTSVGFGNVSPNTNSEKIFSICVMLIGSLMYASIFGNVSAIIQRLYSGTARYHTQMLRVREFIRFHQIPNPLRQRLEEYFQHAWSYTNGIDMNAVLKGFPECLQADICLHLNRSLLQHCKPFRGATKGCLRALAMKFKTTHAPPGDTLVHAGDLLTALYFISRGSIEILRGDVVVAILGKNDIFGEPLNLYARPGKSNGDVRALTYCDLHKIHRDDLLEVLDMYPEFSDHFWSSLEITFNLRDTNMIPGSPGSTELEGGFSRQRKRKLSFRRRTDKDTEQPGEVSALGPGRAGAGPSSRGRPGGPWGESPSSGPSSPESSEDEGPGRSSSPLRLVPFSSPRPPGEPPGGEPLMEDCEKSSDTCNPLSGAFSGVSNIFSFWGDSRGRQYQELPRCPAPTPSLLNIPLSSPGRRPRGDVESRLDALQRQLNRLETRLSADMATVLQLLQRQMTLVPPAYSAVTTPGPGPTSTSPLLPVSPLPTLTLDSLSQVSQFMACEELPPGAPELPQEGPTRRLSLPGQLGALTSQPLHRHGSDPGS
pIC50: −log10 of the molar value.
outcome_measure: pIC50

In the examples that follow, each entry is paired with its recorded pIC50.
smiles_code: O=c1cc(-c2cc3ccncc3n2-c2ccc(Cl)cc2)cc[nH]1
measured: 5.00 to 6.00
//
smiles_code: c1ccc(-n2c(-c3cnc(N4CCOCC4)nc3)cc3ccncc32)cc1
measured: 5.00 to 6.00
//
smiles_code: Clc1ccc(-n2c(-c3cnc(NC4CCOCC4)nc3)cc3ccncc32)cc1
measured: 6.00 to 7.00
//
smiles_code: Fc1cnccc1-c1cc2ccncc2n1-c1ccc(Cl)cc1
measured: 5.00 to 6.00

The compound Clc1ccc(-n2c(-c3ccc(N4CCOCC4)nc3)nc3ccncc32)cc1 showed pIC50 equal to 5.00 to 6.00

The compound Clc1ccc(-n2c(-c3ccncc3)cc3ccncc32)cc1 showed pIC50 equal to 5.00 to 6.00

The compound Clc1ccc(-n2c(-c3cnc(N4CCOCC4)nc3)cc3ccncc32)cc1 showed pIC50 equal to 6.00 to 7.00

The compound Clc1ccc(-n2c(-c3ccc(N4CCOCC4)nn3)nc3ccncc32)cc1 showed pIC50 equal to 5.00 to 6.00

The compound Clc1ccc(-n2c(-c3ccc(CN4CCOCC4)nc3)cc3ccncc32)cc1 showed pIC50 equal to 5.00 to 6.00

----------
target: purified recombinantly expressed human SSAO (Homo sapiens (Human), UniProt Q16853); test: SSAO enzyme inhibition assay (HRP-coupled hydrogen peroxide detection or 14C-benzaldehyde detection, benzylamine substrate); conditions: human recombinant SSAO, RT
pIC50: −log10 of the molar value.
The reader will find reported pIC50 values listed item by item below.

molecule: Cc1cc(NCC2CC2)ncc1-c1nc2ccncc2n1-c1ccc(F)cc1 [Example 101]
assayed_system: purified recombinantly expressed human SSAO (Homo sapiens (Human), UniProt Q16853)
outcome_measure: pIC50
measured: 6.70 to 7.30

The molecule Clc1ccc(-n2c(-c3ccc(CN4CCOCC4)nc3)nc3ccncc32)cc1 [Example 3] showed pIC50 equal to 6.70 to 7.30

The molecule CS(=O)(=O)Nc1ccc(-c2nc3ccncc3n2-c2ccc(Cl)cc2)cn1 [Example 16] showed pIC50 equal to 5.92 to 6.70

----------
Target: purified recombinantly expressed human SSAO (Homo sapiens (Human), UniProt Q16853)
Assay: SSAO enzyme inhibition assay (HRP-coupled hydrogen peroxide detection or 14C-benzaldehyde detection, benzylamine substrate)
Details: human recombinant SSAO, RT
Procedure: All primary assays were performed at RT. with purified recombinantly expressed human SSAO. Enzyme was prepared essentially as described in Öhman et al. (Protein Expression and Purification 46 (2006) 321-331). […] SSAO activity was assayed using 14C-labeled benzylamine and analysed by measuring radioactive benzaldehyde. […] Phase separation occurred instantly and activity was read in a Topcount scintillation counter (Perkin-Elmer). […] Data was analysed as above.
outcome_measure: IC50

In the examples that follow, each entry is paired with its recorded IC50.
smiles_code: O=C(NC1CC1)c1ccc(-c2nc3ccncc3n2-c2ccc(Cl)cc2)cn1
assayed_system: purified recombinantly expressed human SSAO (Homo sapiens (Human), UniProt Q16853)
measured: 0.2 to 1.2 µM

smiles_code: CN(C)c1cc(-c2nc3ccncc3n2-c2ccc(F)cc2)ccn1
assayed_system: purified recombinantly expressed human SSAO (Homo sapiens (Human), UniProt Q16853)
measured: 0.2 to 1.2 µM

smiles_code: Fc1ccc(-n2c(-c3ccc(C4CCOCC4)nn3)nc3ccncc32)cc1
assayed_system: purified recombinantly expressed human SSAO (Homo sapiens (Human), UniProt Q16853)
measured: 0.05 to 0.2 µM

The compound CCn1ccc(-c2cc3ccncc3n2-c2ccc(Cl)cc2)cc1=O showed IC50 equal to 0.05 to 0.2 µM

The compound Fc1ccc(-n2c(-c3cnc(N4CCOCC4)c(F)c3)nc3ccncc32)cc1 showed IC50 equal to 0.05 to 0.2 µM

The compound Cc1ccc(-n2c(-c3cnc(N4CCOCC4)nc3)nc3ccncc32)cc1 showed IC50 equal to 0.05 to 0.2 µM

The compound Clc1ccc(-n2c(-c3cnc(N4CCOCC4)cn3)nc3ccncc32)cc1 showed IC50 equal to 0.05 to 0.2 µM

The compound O=C(c1ccc(-c2nc3ccncc3n2-c2ccc(Cl)cc2)cn1)N1CCOCC1 showed IC50 equal to 0.2 to 1.2 µM

The compound Cc1ccc(-n2c(-c3cnc(N4CCOCC4)nc3)nc3ccncc32)cn1 showed IC50 equal to 0.2 to 1.2 µM

The compound CCOCCNc1ncc(-c2nc3ccncc3n2-c2ccc(F)cc2)cn1 showed IC50 equal to 0.05 to 0.2 µM

----------
biological target: purified recombinantly expressed human SSAO (Homo sapiens (Human), UniProt Q16853); assay: SSAO enzyme inhibition assay (HRP-coupled hydrogen peroxide detection or 14C-benzaldehyde detection, benzylamine substrate); conditions: human recombinant SSAO, RT
The reader will find reported IC50 values listed item by item below.

In the examples that follow, each entry is paired with its recorded IC50.
compound: O=c1cc(-c2cc3ccncc3n2-c2ccc(Cl)cc2)cc[nH]1
measured: 50 to 200 nM
//
compound: O=C1CN(c2ncc(-c3nc4ccncc4n3-c3ccc(F)cc3)cn2)CCN1
measured: 50 to 200 nM
//
compound: Cc1nc(N2CCOCC2)ccc1-c1nc2ccncc2n1-c1ccc(F)cc1
measured: 200 to 1200 nM
//
compound: CN1CCN(C(=O)c2ccc(-c3cc4ccncc4n3-c3ccc(Cl)cc3)cc2)CC1
measured: 200 to 1200 nM
//
compound: NC(=O)N1CCCN(c2ccc(-c3nc4ccncc4n3-c3ccc(F)cc3)cn2)CC1
measured: 200 to 1200 nM

The compound Cc1ccc(-n2c(-c3ccc(N4C[C@@H](C)O[C@@H](C)C4)nc3)nc3ccncc32)cn1 showed IC50 equal to 50 to 200 nM

The compound Fc1ccc(-n2c(-c3ccnc(N4CCOCC4)c3)nc3ccncc32)cc1 showed IC50 equal to 50 to 200 nM

----------
target: purified recombinantly expressed human SSAO (Homo sapiens (Human)); assay: SSAO enzyme inhibition assay (HRP-coupled hydrogen peroxide detection or 14C-benzaldehyde detection, benzylamine substrate); conditions: human recombinant SSAO, RT
outcome_measure: IC50

compound: Clc1ccc(-n2c(-c3cnc(NC4CCOCC4)cn3)nc3ccncc32)cc1 [Example 7]
measured: 0.05 to 0.2 µM

compound: Nc1ccc(-c2nc3ccncc3n2-c2ccc(Cl)cc2)cn1 [Example 110]
measured: 0.2 to 1.2 µM

compound: Fc1ccccc1-n1c(-c2cnc(N3CCOCC3)nc2)nc2ccncc21 [Example 60]
measured: 0.05 to 0.2 µM

compound: NC(=O)N1CCN(c2ncc(-c3nc4ccncc4n3-c3ccc(Cl)cc3)o2)CC1 [Example 93]
measured: 0.05 to 0.2 µM

Tested on purified recombinantly expressed human SSAO (Homo sapiens (Human)), the item O=c1cc(-c2cc3ccncc3n2-c2ccc(Cl)cc2)cn[nH]1 [Example 146] showed IC50 equal to 0.05 to 0.2 µM

Tested on purified recombinantly expressed human SSAO (Homo sapiens (Human)), the item Nc1ncc(-c2nc3ccncc3n2-c2ccc(Cl)cc2)cn1 [Example 31] showed IC50 equal to 0.2 to 1.2 µM

Tested on purified recombinantly expressed human SSAO (Homo sapiens (Human)), the item Clc1ccc(-n2c(-c3ccc(-n4cccn4)nc3)cc3ccncc32)cc1 [Example 151, bis(trifluoroacetic acid)] showed IC50 equal to 0.05 to 0.2 µM

Tested on purified recombinantly expressed human SSAO (Homo sapiens (Human)), the item O=c1cc(-c2nc3ccncc3n2-c2ccc(Cl)cc2F)cc[nH]1 [Example 34] showed IC50 equal to 0.05 to 0.2 µM

Tested on purified recombinantly expressed human SSAO (Homo sapiens (Human)), the item CN1CCN(c2ccc(-c3nc4ccncc4n3-c3ccc(F)cc3)cn2)CC1=O [Example 106] showed IC50 equal to 0.05 to 0.2 µM
